// provenance: ChEMBL document CHEMBL2375293

assay: Half life in Sprague-Dawley rat liver microsomes at 1 uM by LC-MS/MS analysis; format: ADME, Microsome
assayEndpoint: half-life at 1 µM (h)
Write down the numeric answer in h and omit the unit.

Input: Please list half-life at 1 µM recorded for the compound CN1CCc2cc(-c3ccc4oc5c(-c6ccccc6)nc(=O)n(CCN6CCCC6C(N)=O)c5c4c3)ccc2C1 (stereo not drawn)
Output: 1

Input: Answer with the recorded half-life at 1 µM of CN1CCc2cc(-c3ccc4oc5c(-c6ccccc6)nc(=O)n(CCN6CCC(F)(F)C6)c5c4c3)ccc2C1 only.
Output: 0.1

Input: Quick one: give measured half-life at 1 µM for CCNCC(=O)Nc1ccc(-c2nc(=O)n(CCOC)c3c2oc2ccc(-c4ccc5c(c4)CCN(C)C5)cc23)cc1
Output: 2.33

* * *

assay: n-Octanol-phosphate buffer partition coefficient, log D of the compound at 0.5 mg after 24 hrs by LC-MS analysis; format: physicochemical
assayEndpoint: logD at 24 h
Reply with the value as a number alone.

Input: Report logD at 24 h, nothing else, for this molecule: CN1CCc2cc(-c3ccc4oc5c(-c6ccccc6)nc(=O)n(CCN6CCC(F)(F)C6)c5c4c3)ccc2C1
Output: 3.9

Input: Using known records, supply logD at 24 h for CCNCC(=O)Nc1ccc(-c2nc(=O)n(CCOC)c3c2oc2ccc(-c4ccc5c(c4)CCN(C)C5)cc23)cc1
Output: 2.4

Input: Provide only the value of recorded logD at 24 h for CN1CCc2cc(-c3ccc4oc5c(-c6ccccc6)nc(=O)n(CCN6CCCC6C(N)=O)c5c4c3)ccc2C1 (stereo not drawn)
Output: 3

* * *

Would you mind telling me the reported IC50 of each entry?
assay: Inhibition of HIV1 BH10 reverse transcriptase using poly(rA)/oligo(dT)15 as substrate after 60 mins by fluorescence assay; design: species or system Human immunodeficiency virus type 1 BH10
Value expressed in nM; do not type the unit.

Input: Hello, please tell me recorded IC50 for this one: CCNCC(=O)Nc1ccc(-c2nc(=O)n(CCOC)c3c2oc2ccc(-c4ccc5c(c4)CCN(C)C5)cc23)cc1
Output: 4.2

Input: For COCCn1c(=O)nc(-c2ccc(OCCN(C)C)cc2)c2oc3ccccc3c21 , write its IC50.
Output: 630

Input: Output measured IC50 for this item: CNC1CCN(c2ccc(-c3nc(=O)n(CCOC)c4c3oc3ccc(Cl)cc34)cn2)C1 (stereo not given)
Output: 40

Input: Write down IC50 measured for item COCCn1c(=O)nc(-c2ccc(N3CCN(C)CC3)nc2)c2oc3ccc(Cl)cc3c21
Output: 75

Input: Tell me measured IC50 for CN1CCc2cc(-c3ccc4oc5c(-c6ccccc6)nc(=O)n(CCN6CCC(F)(F)C6)c5c4c3)ccc2C1 please.
Output: 20

* * *

assay: Inhibition of HIV1 BH10 reverse transcriptase using poly(rA)/oligo(dT)15 as substrate after 60 mins by fluorescence assay; parameters: species or system Human immunodeficiency virus type 1 BH10
Category key, based on recorded IC50: small value: < 300 nM; mid value: ≥ 300 nM and < 1000 nM; large value: ≥ 1000 nM

Input: Each compound maps to one class by IC50. Which class for NC(=O)C1CCCN1CCn1c(=O)nc(-c2ccccc2)c2oc3ccc(Cl)cc3c21 (stereo not drawn) ?
Output: mid value

Input: Bin? CCNCC(=O)Nc1ccc(-c2nc(=O)n(CCOC)c3c2oc2cc(-c4ccc5c(c4)CCN(C)C5)ccc23)cc1
Output: small value

Input: Assign a bin to CCNCC(=O)Nc1ccc(-c2nc(=O)n(CCOC)c3c2oc2ccc(-c4cccnc4)cc23)cc1
Output: small value

Input: The entry to classify is O=c1nc(-c2ccccc2)c2oc3ccccc3c2n1CCN1CCCC1 ; which class holds it?
Output: large value

Input: Class? Entry: COCCn1c(=O)nc(-c2ccc(NC(=O)C(C)N(C)C)cc2)c2oc3ccccc3c21 (stereo not drawn)
Output: large value

Input: Given COCCn1c(=O)nc(-c2ccnc(N3CCN(C)CC3)c2)c2oc3ccc(Br)cc3c21 , name the class its IC50 places it in.
Output: large value

Input: Which class does O=c1nc(-c2ccccc2)c2oc3ccc(Cl)cc3c2n1CCN1CCC(F)(F)C1 fall in?
Output: mid value

Input: Which IC50 band matches Cn1c(=O)nc(-c2ccccc2)c2oc3ccccc3c21 ?
Output: large value

Input: The entry to classify is O=c1nc(-c2ccccc2)c2oc3ccc(Cl)cc3c2n1CCN1CCCC1 ; which class holds it?
Output: mid value

Input: Categorize the following entry: O=c1nc(-c2ccccc2)c2oc3ccc(Cl)cc3c2n1CCN1CCOCC1
Output: large value

Input: Lab note: which band did COCCn1c(=O)nc(-c2ccc(NC(=O)CN(C)C)cc2)c2oc3ccccc3c21 land in?
Output: large value

Input: Class for CN1CCc2cc(-c3ccc4oc5c(-c6ccccc6)nc(=O)n(CCN6CCCC6C(N)=O)c5c4c3)ccc2C1 (stereo not drawn) ?
Output: small value

Input: Exercise: read the entry COCCn1c(=O)nc(-c2ccc(COCCN(C)C)cc2)c2oc3ccccc3c21 and state which class it falls under.
Output: mid value

* * *

experiment: Cytotoxicity against human C8166 cells assessed as inhibition of cell viability after 3 days by MTT assay; assay type: cell-based
Give measured CC50 at 72 h for each item. Keep answers brief.

Input: Determine its reported CC50 at 72 h: COCCn1c(=O)nc(-c2ccc(NC(=O)C(C)N(C)C)cc2)c2oc3ccccc3c21 (stereo not drawn)
Output: > 11 µM

Input: Assign CC50 at 72 h to the following record: COCCn1c(=O)nc(-c2ccc(N3CCN(C)CC3)cc2)c2oc3ccc(Cl)cc3c21
Output: > 4.5 µM

Input: Quickly give me recorded CC50 at 72 h for COCCn1c(=O)nc(-c2ccc(NC(=O)CN(C)C)cc2)c2oc3ccccc3c21
Output: > 11 µM

* * *

I'd be grateful if you could share measured CC50 at 72 h for these entries.
experiment: Cytotoxicity against human C8166 cells assessed as inhibition of cell viability after 3 days by MTT assay; format: cell-based

Input: Report CC50 at 72 h, nothing else, for this compound: CCNCC(=O)Nc1ccc(-c2nc(=O)n(CCOC)c3c2oc2ccc(-c4ccc(CO)cc4)cc23)cc1
Output: > 1.3 µM

Input: Indicate its recorded CC50 at 72 h; the compound in question is O=c1nc(-c2ccccc2)c2oc3ccc(Cl)cc3c2n1CCN1CCC(F)(F)C1
Output: > 4.5 µM

Input: For the compound CCNCC(=O)Nc1ccc(-c2nc(=O)n(CCOC)c3c2oc2ccc(-c4cccnc4)cc23)cc1 , give its measured CC50 at 72 h value.
Output: > 5.1 µM
